Biological target: human SLC6A19 and TMEM27 (Homo sapiens, UniProt Q695T7)
Construct: expressed in transfected cells
Sequence (Q695T7 1-634): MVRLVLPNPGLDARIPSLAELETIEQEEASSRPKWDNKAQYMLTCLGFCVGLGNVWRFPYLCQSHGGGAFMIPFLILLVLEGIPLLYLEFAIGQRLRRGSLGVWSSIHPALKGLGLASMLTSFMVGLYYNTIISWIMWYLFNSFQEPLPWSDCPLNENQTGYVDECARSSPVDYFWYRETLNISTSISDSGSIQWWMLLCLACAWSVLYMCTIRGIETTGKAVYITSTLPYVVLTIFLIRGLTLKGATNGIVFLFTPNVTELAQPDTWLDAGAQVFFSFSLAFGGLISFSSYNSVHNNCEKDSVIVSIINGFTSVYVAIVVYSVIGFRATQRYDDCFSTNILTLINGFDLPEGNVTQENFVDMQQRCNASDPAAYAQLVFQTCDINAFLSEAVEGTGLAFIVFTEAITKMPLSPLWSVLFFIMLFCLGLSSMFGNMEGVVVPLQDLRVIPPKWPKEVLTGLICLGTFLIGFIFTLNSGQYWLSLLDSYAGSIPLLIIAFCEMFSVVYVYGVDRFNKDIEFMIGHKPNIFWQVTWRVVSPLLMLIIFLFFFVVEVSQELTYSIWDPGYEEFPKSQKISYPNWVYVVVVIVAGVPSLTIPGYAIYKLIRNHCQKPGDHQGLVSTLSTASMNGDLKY
Sequence (Q9HBJ8 15-222 partner): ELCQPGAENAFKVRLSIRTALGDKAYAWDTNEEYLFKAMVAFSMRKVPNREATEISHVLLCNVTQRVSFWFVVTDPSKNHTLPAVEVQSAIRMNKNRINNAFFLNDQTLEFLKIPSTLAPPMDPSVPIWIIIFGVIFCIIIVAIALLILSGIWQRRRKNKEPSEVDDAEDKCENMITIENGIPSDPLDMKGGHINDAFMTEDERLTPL
Test: Radiolabelled (3H) leucine uptake in CHO cells with doxycycline-inducible expression of human SLC6A19 and TMEM27 (Example B-1)
Type: cell-based
Conditions: CHO cells with doxycycline-inducible expression of human SLC6A19 and TMEM27, read-out: SLC6A19_Radioligand Uptake Assay IC50
pIC50: −log10 of the molar value.
Measured parameter: pIC50

INSERT INTO measurements (compound, measured_parameter, experimental_result) VALUES
  ('CC1(C(=O)NCc2cc3ccc(CCc4cscn4)cc3[nH]2)CC1 [Compound 76]', 'pIC50', 7.00),
  ('CC1(C(=O)NCc2cc3cc(Cl)c(OCc4ccns4)cc3[nH]2)CC1 [Compound 322]', 'pIC50', 6.56),
  ('CN(C)CC(=O)NCc1cc2cc(Cl)c(OCc3cscn3)cc2[nH]1 [Compound 580]', 'pIC50', 6.21),
  ('O=C(NCc1cc2cc(Cl)c(OCc3ccon3)cc2[nH]1)N1CCC1 [Compound 79]', 'pIC50', 6.57);

P = O=C(CCO)NCc1cc2cc(Cl)c(OCc3cscn3)cc2[nH]1 [Compound 309]
Q = CC(=O)NCc1cc2cc(F)c(OCc3cocn3)cc2[nH]1 [Compound 224]
Prompt: Out of P and Q , name the one with the higher pIC50. Use the label to indicate which entry you chose.
Completion: Q
(Q: 6.26, P: 5.76)

I = CC1(C(=O)NCc2cc3cc(Cl)c(OCc4ccsc4)cc3[nH]2)CC1 [Compound 25]
II = CCC(=O)NCc1cc2cc(Cl)c(OCc3cc(C)no3)cc2[nH]1 [Compound 438]
Prompt: Looking at recorded values for pIC50, does I or II come in lower? Your answer should be the label attached to the chosen record.
Completion: I

I = Cc1cc(COc2cc3[nH]c(CNC(=O)C45CCC(CC4)O5)cc3cc2Cl)on1 [Compound 296]
II = CC1(C(=O)NCc2cc3cc(Cl)c(NCc4ccon4)cc3[nH]2)CC1 [Compound 151]
Prompt: Could you tell me which of I and II has the lower pIC50 reading? Give the label under which the chosen entry appears.
Completion: I
(I: 6.01, II: 6.74)
